biological target: bovine cardiac myofibrils (Bos taurus); construct: full-length cardiac myosin in the context of the native sarcomere; from tissue; host or cells: bovine cardiac left ventricular tissue, homogenized with detergent (triton X-100); assay: Skinned bovine cardiac myofibril ATPase assay (PK/LDH-coupled); format: biochemical; settings: inhibition of steady-state ATPase activity of bovine cardiac myofibrils; calcium at 75% activation (pCa75); PM12 buffer pH 6.8
Sequence (Q9BE39 whole entry): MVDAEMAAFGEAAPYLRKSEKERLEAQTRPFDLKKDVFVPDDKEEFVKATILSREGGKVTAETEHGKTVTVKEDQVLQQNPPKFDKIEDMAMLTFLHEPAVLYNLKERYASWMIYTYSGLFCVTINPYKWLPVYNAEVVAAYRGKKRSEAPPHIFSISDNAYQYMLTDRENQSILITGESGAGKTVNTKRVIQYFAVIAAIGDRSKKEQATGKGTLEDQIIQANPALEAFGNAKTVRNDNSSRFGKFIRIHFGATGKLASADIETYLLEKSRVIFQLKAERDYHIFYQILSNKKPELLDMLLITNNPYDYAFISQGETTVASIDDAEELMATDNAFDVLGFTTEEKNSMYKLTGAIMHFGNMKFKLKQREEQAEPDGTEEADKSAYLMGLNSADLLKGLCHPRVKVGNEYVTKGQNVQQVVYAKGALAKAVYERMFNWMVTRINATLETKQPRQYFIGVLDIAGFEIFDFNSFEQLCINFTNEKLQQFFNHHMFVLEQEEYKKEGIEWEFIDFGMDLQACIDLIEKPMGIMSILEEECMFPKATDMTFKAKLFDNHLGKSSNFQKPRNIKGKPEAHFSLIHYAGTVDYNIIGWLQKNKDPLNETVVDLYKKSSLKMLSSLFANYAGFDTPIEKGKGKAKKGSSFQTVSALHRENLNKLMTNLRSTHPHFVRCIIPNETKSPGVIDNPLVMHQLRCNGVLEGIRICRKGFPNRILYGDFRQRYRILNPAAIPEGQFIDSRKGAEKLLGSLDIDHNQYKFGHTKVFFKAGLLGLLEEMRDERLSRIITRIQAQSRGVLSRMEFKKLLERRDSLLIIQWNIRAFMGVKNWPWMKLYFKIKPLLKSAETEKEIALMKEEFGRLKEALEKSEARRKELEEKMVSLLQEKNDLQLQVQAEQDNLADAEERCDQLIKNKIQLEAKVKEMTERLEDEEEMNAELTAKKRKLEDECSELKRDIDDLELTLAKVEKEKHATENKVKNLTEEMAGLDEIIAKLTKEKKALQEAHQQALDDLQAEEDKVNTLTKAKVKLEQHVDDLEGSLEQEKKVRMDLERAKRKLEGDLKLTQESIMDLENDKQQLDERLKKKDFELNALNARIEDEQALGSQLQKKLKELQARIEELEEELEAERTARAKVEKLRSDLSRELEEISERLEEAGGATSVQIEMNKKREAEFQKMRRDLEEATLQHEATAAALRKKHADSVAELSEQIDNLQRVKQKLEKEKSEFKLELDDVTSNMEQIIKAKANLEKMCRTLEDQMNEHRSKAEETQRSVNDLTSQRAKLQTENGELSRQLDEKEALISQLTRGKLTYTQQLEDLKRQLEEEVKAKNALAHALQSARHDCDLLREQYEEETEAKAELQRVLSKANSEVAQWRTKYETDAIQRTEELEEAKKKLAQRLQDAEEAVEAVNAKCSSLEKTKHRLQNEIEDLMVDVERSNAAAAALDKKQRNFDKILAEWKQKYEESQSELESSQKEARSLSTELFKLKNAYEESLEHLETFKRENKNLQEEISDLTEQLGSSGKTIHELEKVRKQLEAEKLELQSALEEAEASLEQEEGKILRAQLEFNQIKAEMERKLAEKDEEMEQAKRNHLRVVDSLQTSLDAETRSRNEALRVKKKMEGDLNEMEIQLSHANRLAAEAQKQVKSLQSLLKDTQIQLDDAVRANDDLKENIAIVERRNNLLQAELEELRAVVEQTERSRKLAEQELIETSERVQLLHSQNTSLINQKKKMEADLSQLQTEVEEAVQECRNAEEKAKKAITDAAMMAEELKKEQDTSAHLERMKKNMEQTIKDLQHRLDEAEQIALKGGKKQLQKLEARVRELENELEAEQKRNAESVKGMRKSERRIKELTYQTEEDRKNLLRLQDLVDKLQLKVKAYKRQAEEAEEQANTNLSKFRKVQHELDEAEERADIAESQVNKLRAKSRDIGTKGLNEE
Sequence (P85100 whole entry partner): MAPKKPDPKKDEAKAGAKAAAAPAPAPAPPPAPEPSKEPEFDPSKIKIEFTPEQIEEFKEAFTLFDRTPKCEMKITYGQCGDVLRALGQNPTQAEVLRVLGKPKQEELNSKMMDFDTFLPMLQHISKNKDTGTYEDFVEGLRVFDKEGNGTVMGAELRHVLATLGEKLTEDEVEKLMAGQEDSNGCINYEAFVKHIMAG
Sequence (Q3SZE5 whole entry partner): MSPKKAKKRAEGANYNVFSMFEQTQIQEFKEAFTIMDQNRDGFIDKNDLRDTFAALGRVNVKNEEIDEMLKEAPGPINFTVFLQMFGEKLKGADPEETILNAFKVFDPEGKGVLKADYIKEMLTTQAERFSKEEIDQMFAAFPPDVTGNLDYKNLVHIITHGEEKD
Give Fulfilled when the value for CDMF75 IC15 is at least 3000 nM. Give Not fulfilled when it is less.

A selection of reference data follows.
INSERT INTO results (compound, classification) VALUES
  ('CCc1nc(-c2ccc3c(c2)OCC32COC(=O)N2)no1 (single isomer, unassigned) [Compound 41B]', 'Fulfilled'),
  ('CCc1nc(-c2ccc3c(c2)CCC3C(=O)Nc2ccnc(C)c2)no1 (single isomer, unassigned) [Compound 2B]', 'Fulfilled'),
  ('CCc1nc(-c2ccc3c(c2)CCC3C(=O)Nc2ccnc(C)c2)no1 (single isomer, unassigned) [Compound 2A]', 'Not fulfilled'),
  ('Cc1cc(NC(=O)C2CCc3cc(-c4noc(C)n4)ccc32)ccn1 (racemic) [Compound 17]', 'Fulfilled'),
  ('CCc1nc(-c2ccc3c(c2)CCC3C(=O)Nc2ccccc2)no1 (racemic) [Compound 8]', 'Not fulfilled');

Problem: Dear colleague, could you confirm whether Cc1cc(NC(=O)C2CCc3cc(-c4noc(C(C)C)n4)ccc32)ccn1 (racemic) [Compound 23] has CDMF75 IC15 at or above 3000 nM?
Solution: Fulfilled
